Values compiled from PubChem BioAssay (NCI).

# growth annotations
# System: EKVX NSCLC
# protocol_details: NCI-60 one-dose screen, 48 h (100 = growth as untreated, 0 = no growth, -100 = all killed)
# condition_description: 10 µM unless noted
This is part of a sample that, as a whole, favours compounds with a hit. Of some 83,000 tested, about 20% had one in any assay.
quantity_kind: growth (%)

>  <molecule>
CCNC(=O)Oc1ccc(/C(=C(/CC)Cc2ccccc2)c2ccc(OCCN3CCCC3)cc2)cc1

>  <reading>
88.3

$$$$
>  <molecule>
CC(C)N1C(=O)/C(=c2\sc3n(c2=O)C2C(NN=3)N(C)C(=O)N2C)c2ccccc21 (stereo not drawn)

>  <reading>
88.8

$$$$
>  <molecule>
COc1ccc(/C=C/C(=O)c2ccc(NC(=O)CSc3nc4c([nH]3)c(=O)n(C)c(=O)n4C)cc2)cc1OC

>  <reading>
88.5

$$$$
